Documented fold change of affinity across a set of binders
target: T1, Human CD137 ECD (human)
T1 construct: entry includes C-terminal His-tag and biotin acceptor peptide; also called human CD137 extracellular domain; 4-1BB
T1 sequence (chain, as listed by the source limits assumed): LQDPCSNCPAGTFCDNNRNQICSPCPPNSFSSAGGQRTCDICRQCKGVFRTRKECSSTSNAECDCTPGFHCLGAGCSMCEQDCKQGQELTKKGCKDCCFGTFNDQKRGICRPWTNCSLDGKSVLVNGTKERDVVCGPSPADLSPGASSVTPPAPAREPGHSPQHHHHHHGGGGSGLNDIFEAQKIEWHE
test_summary: Biacore SPR, vs parent H183/L072

[
  {
    "binder": "H183/L072 VL S93N (antibody, name in Kabat numbering, V domains shown, Dual-Ig) VH: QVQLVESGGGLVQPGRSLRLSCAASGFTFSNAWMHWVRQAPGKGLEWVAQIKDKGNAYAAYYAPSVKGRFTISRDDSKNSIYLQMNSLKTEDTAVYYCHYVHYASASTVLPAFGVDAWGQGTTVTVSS VL: DIVMTQSPLSLPVTPGEPASISCQASQELVHMNRNTYLHWYQQKPGQAPRLLIYKVSNRFPGVPDRFSGSGSGTDFTLKISRVEAEDVGVYYCAQGTNVPFTFGQGTKLEIK",
    "unit_string": "fold",
    "fold change of affinity": 1
  },
  {
    "binder": "H183/L072 VL S93A (antibody, name in Kabat numbering, V domains shown, Dual-Ig) VH: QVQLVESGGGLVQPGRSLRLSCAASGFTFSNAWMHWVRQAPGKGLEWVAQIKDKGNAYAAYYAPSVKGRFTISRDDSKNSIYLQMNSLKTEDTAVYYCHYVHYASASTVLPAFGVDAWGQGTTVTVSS VL: DIVMTQSPLSLPVTPGEPASISCQASQELVHMNRNTYLHWYQQKPGQAPRLLIYKVSNRFPGVPDRFSGSGSGTDFTLKISRVEAEDVGVYYCAQGTAVPFTFGQGTKLEIK",
    "unit_string": "fold",
    "fold change of affinity": 0.9
  },
  {
    "binder": "H183/L072 VL F96S (antibody, name in Kabat numbering, V domains shown, Dual-Ig) VH: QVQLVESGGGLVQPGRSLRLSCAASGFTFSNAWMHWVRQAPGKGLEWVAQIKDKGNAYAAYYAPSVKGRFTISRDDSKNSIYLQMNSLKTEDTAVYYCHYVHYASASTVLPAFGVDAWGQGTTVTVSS VL: DIVMTQSPLSLPVTPGEPASISCQASQELVHMNRNTYLHWYQQKPGQAPRLLIYKVSNRFPGVPDRFSGSGSGTDFTLKISRVEAEDVGVYYCAQGTSVPSTFGQGTKLEIK",
    "unit_string": "fold",
    "fold change of affinity": 0
  },
  {
    "binder": "H183/L072 VL A25N (antibody, name in Kabat numbering, V domains shown, Dual-Ig) VH: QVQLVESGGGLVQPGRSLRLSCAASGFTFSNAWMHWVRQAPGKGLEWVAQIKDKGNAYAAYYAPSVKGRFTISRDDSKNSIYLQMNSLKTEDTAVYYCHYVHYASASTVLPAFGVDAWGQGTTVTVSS VL: DIVMTQSPLSLPVTPGEPASISCQNSQELVHMNRNTYLHWYQQKPGQAPRLLIYKVSNRFPGVPDRFSGSGSGTDFTLKISRVEAEDVGVYYCAQGTSVPFTFGQGTKLEIK",
    "unit_string": "fold",
    "fold change of affinity": 0.2
  },
  {
    "binder": "H183/L072 VL K50H (antibody, name in Kabat numbering, V domains shown, Dual-Ig) VH: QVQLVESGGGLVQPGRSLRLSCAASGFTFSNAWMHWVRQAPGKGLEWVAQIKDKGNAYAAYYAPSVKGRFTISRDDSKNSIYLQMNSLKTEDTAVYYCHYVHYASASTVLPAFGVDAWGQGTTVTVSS VL: DIVMTQSPLSLPVTPGEPASISCQASQELVHMNRNTYLHWYQQKPGQAPRLLIYHVSNRFPGVPDRFSGSGSGTDFTLKISRVEAEDVGVYYCAQGTSVPFTFGQGTKLEIK",
    "unit_string": "fold",
    "fold change of affinity": 0
  },
  {
    "binder": "H183/L072 VL S93M (antibody, name in Kabat numbering, V domains shown, Dual-Ig) VH: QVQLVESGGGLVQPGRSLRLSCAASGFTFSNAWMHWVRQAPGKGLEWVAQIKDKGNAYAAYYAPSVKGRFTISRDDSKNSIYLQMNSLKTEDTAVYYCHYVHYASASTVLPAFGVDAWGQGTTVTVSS VL: DIVMTQSPLSLPVTPGEPASISCQASQELVHMNRNTYLHWYQQKPGQAPRLLIYKVSNRFPGVPDRFSGSGSGTDFTLKISRVEAEDVGVYYCAQGTMVPFTFGQGTKLEIK",
    "unit_string": "fold",
    "fold change of affinity": 1
  },
  {
    "binder": "H183/L072 VL F55T (antibody, name in Kabat numbering, V domains shown, Dual-Ig) VH: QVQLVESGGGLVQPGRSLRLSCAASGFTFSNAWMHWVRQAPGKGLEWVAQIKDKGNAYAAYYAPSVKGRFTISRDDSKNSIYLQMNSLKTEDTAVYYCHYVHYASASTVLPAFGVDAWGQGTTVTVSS VL: DIVMTQSPLSLPVTPGEPASISCQASQELVHMNRNTYLHWYQQKPGQAPRLLIYKVSNRTPGVPDRFSGSGSGTDFTLKISRVEAEDVGVYYCAQGTSVPFTFGQGTKLEIK",
    "unit_string": "fold",
    "fold change of affinity": 0
  },
  {
    "binder": "H183/L072 VL G91N (antibody, name in Kabat numbering, V domains shown, Dual-Ig) VH: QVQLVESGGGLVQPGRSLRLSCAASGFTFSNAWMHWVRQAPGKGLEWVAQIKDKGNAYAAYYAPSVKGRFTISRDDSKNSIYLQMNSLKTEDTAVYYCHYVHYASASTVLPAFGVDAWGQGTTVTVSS VL: DIVMTQSPLSLPVTPGEPASISCQASQELVHMNRNTYLHWYQQKPGQAPRLLIYKVSNRFPGVPDRFSGSGSGTDFTLKISRVEAEDVGVYYCAQNTSVPFTFGQGTKLEIK",
    "unit_string": "fold",
    "fold change of affinity": 0
  },
  {
    "binder": "H183/L072 VL G91P (antibody, name in Kabat numbering, V domains shown, Dual-Ig) VH: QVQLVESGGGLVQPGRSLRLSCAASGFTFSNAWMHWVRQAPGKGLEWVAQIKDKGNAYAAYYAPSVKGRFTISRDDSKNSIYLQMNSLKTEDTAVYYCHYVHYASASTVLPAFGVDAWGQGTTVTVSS VL: DIVMTQSPLSLPVTPGEPASISCQASQELVHMNRNTYLHWYQQKPGQAPRLLIYKVSNRFPGVPDRFSGSGSGTDFTLKISRVEAEDVGVYYCAQPTSVPFTFGQGTKLEIK",
    "unit_string": "fold",
    "fold change of affinity": 0
  },
  {
    "binder": "H183/L072 VL P95T (antibody, name in Kabat numbering, V domains shown, Dual-Ig) VH: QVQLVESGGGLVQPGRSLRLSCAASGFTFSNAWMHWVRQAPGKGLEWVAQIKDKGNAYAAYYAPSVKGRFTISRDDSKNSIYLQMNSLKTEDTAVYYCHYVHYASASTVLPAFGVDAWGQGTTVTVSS VL: DIVMTQSPLSLPVTPGEPASISCQASQELVHMNRNTYLHWYQQKPGQAPRLLIYKVSNRFPGVPDRFSGSGSGTDFTLKISRVEAEDVGVYYCAQGTSVTFTFGQGTKLEIK",
    "unit_string": "fold",
    "fold change of affinity": 0
  }
]

Value source: patent US20210388087A1
